- Test system: B16-F10 murine melanoma
- Test summary: In vitro cytotoxicity assay, B16-F10 murine melanoma
- Assay type: cell-based
- Test settings: Mus musculus, B16-F10, B16-F10 murine melanoma; two values per compound; four-fold serial dilution; read-out: In vitro cytotoxicity IC50, B-16-F10
Observable: log10(IC50) (log10 of the value in µg/mL)

• COc1cc([C@@H]2c3cc4c(cc3[C@@H](O[C@@H]3O[C@@H]5CO[C@@H](C)O[C@H]5[C@H](O)[C@H]3O)[C@H]3COC(=O)[C@H]23)OCO4)cc(NC(=O)NCCCl)c1O [Example 10] = 1.76
• COc1cc([C@@H]2c3cc4c(cc3[C@@H](O[C@@H]3O[C@@H]5CO[C@@H](C)O[C@H]5[C@H](O)[C@H]3O)[C@H]3COC(=O)[C@H]23)OCO4)cc([N+]#N)c1[O-] [Example 25] = 1.46
• COc1cc([C@@H]2c3cc4c(cc3[C@@H](O[C@@H]3O[C@@H]5CO[C@@H](C)O[C@H]5[C@H](O)[C@H]3O)[C@H]3COC(=O)[C@H]23)OCO4)cc(N=Cc2ccncc2)c1O [Example 19] = 1.23
• COc1cc([C@@H]2c3cc4c(cc3[C@@H](O[C@@H]3O[C@@H]5CO[C@@H](C)O[C@H]5[C@H](O)[C@H]3O)[C@H]3COC(=O)[C@H]23)OCO4)cc(N=Cc2ccsc2)c1O [Example 17] = 0.83
• CC(=O)NC1=CC([C@@H]2c3cc4c(cc3[C@@H](O[C@@H]3O[C@@H]5CO[C@@H](C)O[C@H]5[C@H](O)[C@H]3O)[C@H]3COC(=O)[C@@H]32)OCO4)=CC(=O)C1=O [Example 28] = 1.86
• COc1cc([C@@H]2c3cc4c(cc3[C@@H](O[C@@H]3O[C@@H]5CO[C@@H](C)O[C@H]5[C@H](O)[C@H]3O)[C@H]3COC(=O)[C@H]23)OCO4)cc(N=Cc2cccc([N+](=O)[O-])c2)c1O [Example 22] = 1.04
• COc1cc([C@@H]2c3cc4c(cc3[C@@H](O[C@@H]3O[C@@H]5CO[C@@H](C)O[C@H]5[C@H](O)[C@H]3O)[C@H]3COC(=O)[C@H]23)OCO4)cc([N+](=O)[O-])c1O [Example 24, 3'-Desmethoxy-3'-nitro etoposide] = 1.61
• CNc1cc([C@@H]2c3cc4c(cc3[C@@H](O[C@@H]3O[C@@H]5CO[C@@H](C)O[C@H]5[C@H](O)[C@H]3O)[C@H]3COC(=O)[C@H]23)OCO4)cc(OC)c1O [Example 4, 3'-Desmethoxy-3'-methylamine etoposide] = 1.14
• COc1cc([C@@H]2c3cc4c(cc3[C@@H](O[C@@H]3O[C@@H]5CO[C@@H](C)O[C@H]5[C@H](O)[C@H]3O)[C@H]3COC(=O)[C@H]23)OCO4)cc(N=Cc2ccco2)c1O [Example 18] = 1.10

###

We begin with a simple list: items and their reported In vitro cytotoxicity IC50, MOSER.
- System: Moser human colon
- Test summary: In vitro cytotoxicity assay, Moser human colon
- Type: cell-based
- Test settings: two values per compound, four-fold serial dilution
Observable: In vitro cytotoxicity IC50, MOSER

- COc1cc([C@@H]2c3cc4c(cc3[C@@H](O[C@@H]3O[C@@H]5CO[C@@H](C)O[C@H]5[C@H](O)[C@H]3O)[C@H]3COC(=O)[C@H]23)OCO4)cc([N+](=O)[O-])c1O [Example 24, 3'-Desmethoxy-3'-nitro etoposide]: 84 µg/mL
- COc1cc([C@@H]2c3cc4c(cc3[C@@H](O[C@@H]3O[C@@H]5CO[C@@H](C)O[C@H]5[C@H](O)[C@H]3O)[C@H]3COC(=O)[C@H]23)OCO4)cc(NC(=O)NCc2ccccc2)c1O: 93 µg/mL
- CC(=O)NC1=CC([C@@H]2c3cc4c(cc3[C@@H](O[C@@H]3O[C@@H]5CO[C@@H](C)O[C@H]5[C@H](O)[C@H]3O)[C@H]3COC(=O)[C@@H]32)OCO4)=CC(=O)C1=O: 71 µg/mL
- COc1cc([C@@H]2c3cc4c(cc3[C@@H](O[C@@H]3O[C@@H]5CO[C@@H](C)O[C@H]5[C@H](O)[C@H]3O)[C@H]3COC(=O)[C@H]23)OCO4)cc2ncoc12 [Example 27, Etoposide benzoxazole derivative]: 27 µg/mL
